Just for reference, patent US10526320B2 is where these values come from.

Catalogue of molecules with associated EC50
Biological target: PPAR Gamma (Homo sapiens)
Sequence (P37231 1-505): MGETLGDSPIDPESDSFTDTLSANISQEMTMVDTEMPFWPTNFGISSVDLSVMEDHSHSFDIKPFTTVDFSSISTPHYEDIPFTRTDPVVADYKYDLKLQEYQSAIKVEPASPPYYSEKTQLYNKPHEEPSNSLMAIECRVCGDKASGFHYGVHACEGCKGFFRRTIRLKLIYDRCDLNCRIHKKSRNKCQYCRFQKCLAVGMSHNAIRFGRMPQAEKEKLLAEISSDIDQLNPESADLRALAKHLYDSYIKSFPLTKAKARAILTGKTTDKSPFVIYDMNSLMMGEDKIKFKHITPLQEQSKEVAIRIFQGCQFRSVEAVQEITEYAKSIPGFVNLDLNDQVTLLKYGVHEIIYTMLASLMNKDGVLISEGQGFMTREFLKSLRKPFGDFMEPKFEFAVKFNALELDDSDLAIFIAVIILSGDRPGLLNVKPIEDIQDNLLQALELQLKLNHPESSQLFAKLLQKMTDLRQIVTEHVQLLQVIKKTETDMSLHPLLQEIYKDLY
Experiment: PathHunter NHR protein interaction / nuclear translocation agonist test, PPAR Gamma
Type: cell-based
Settings: agonist mode; read-out: PPAR Gamma EC50

Solved cases (5 shown):
CSc1ccc(C(=O)[C@H]2CN(C(=O)OC3CCC(C)CC3)C[C@@H]2Cc2cc(C)c(OC(C)(C)C(=O)O)c(C)c2)cc1 (mixture of isomers)    0.2 to 0.25 µM
COC(=O)N1CC(CCc2cc(C)c(OC(C)(C)C(=O)O)c(C)c2)C(C(=O)c2ccc(SC)cc2)C1 (single isomer, unassigned)    0.2 to 0.25 µM
CSc1ccc(C(=O)C2CN(C(=O)Oc3ccccc3)CC2CCc2ccc(OC(C)(C)C(=O)O)cc2)cc1 (single isomer, unassigned)    > 0.25 µM
CSc1ccc(C(=O)C2CN(C(=O)Oc3ccccc3)CC2CCc2ccc(OC(C)(C)C(=O)O)c(C)c2)cc1 (single isomer, unassigned)    0.2 to 0.25 µM
CSc1ccc(C(=O)C2CN(C(=O)Oc3ccc(Cl)cc3)CC2c2cccc(OC(C)(C)C(=O)O)c2)cc1 (single isomer, unassigned)    > 0.25 µM

Entry COC(=O)N1C[C@@H](C(=O)c2ccc(SC)cc2)[C@H](c2cc(C)c(OC(C)(C)C(=O)O)c(C)c2)C1 (single isomer, unassigned) : reported EC50 = ?
> 0.25 µM

Try this molecule next: CSc1ccc(C(=O)C2CN(C(=O)OC(C)C)CC2CCc2cc(C)c(OC(C)(C)C(=O)O)c(C)c2)cc1 (single isomer, unassigned)
0.2 to 0.25 µM

====

Target: PPAR Delta (Homo sapiens, UniProt Q03181)
Sequence (Q03181 whole entry): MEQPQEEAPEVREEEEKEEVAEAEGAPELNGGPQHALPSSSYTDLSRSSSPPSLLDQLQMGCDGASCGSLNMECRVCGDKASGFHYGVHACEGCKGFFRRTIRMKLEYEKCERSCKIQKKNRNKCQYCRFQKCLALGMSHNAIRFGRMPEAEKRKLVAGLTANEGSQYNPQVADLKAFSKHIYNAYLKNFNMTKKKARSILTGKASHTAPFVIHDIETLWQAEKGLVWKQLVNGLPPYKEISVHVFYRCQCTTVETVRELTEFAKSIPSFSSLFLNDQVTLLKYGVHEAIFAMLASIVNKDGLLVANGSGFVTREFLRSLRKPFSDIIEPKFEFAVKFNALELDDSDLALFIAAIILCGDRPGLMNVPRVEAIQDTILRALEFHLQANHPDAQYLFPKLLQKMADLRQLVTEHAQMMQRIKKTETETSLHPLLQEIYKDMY
Assay: PathHunter NHR protein interaction / nuclear translocation agonist test, PPAR Delta
Type: cell-based
Conditions: agonist mode; read-out: PPAR Delta EC50
reported_endpoint: EC50

CSc1ccc(C(=O)C2CN(S(N)(=O)=O)CC2c2cc(C)c(OC(C)(C)C(=O)O)c(C)c2)cc1 (single isomer, unassigned)    > 250 nM
CSc1ccc(C(=O)C2CN(C(=O)Oc3ccccc3)CC2Cc2ccc(OC(C)(C)C(=O)O)c(F)c2)cc1 (single isomer, unassigned)    100 to 150 nM
CSc1ccc(C(=O)C2CN(C(=O)Oc3ccccc3)CC2CCc2ccc(OC(C)(C)C(=O)O)c(C)c2)cc1 (single isomer, unassigned)    100 to 150 nM
Cc1cc(CC[C@H]2CN(C(=O)Oc3ccccc3)C[C@@H]2C(=O)c2ccc(S(C)(=O)=O)cc2)cc(C)c1OC(C)(C)C(=O)O (racemic)    > 250 nM
CSc1ccc(C(=O)C2CN(C(C)=O)CC2c2cc(C)c(OC(C)(C)C(=O)O)c(C)c2)cc1 (single isomer, unassigned)    > 250 nM

Give its EC50 value. Item: CSc1ccc(C(=O)[C@@H]2CN(C(C)=O)C[C@H]2CCc2cc(C)c(OC(C)(C)C(=O)O)c(C)c2)cc1 (racemic)
150 to 200 nM

// query: Cc1cc(CCC2CN(C(=O)Oc3ccccc3)CC2C(=O)c2ccc(Cl)s2)cc(C)c1OC(C)(C)C(=O)O (single isomer, unassigned)
< 100 nM

Now the same for CSc1ccc(C(=O)C2CN(C(=O)Oc3ccc(Cl)cc3)CC2c2cccc(OC(C)(C)C(=O)O)c2)cc1 (single isomer, unassigned) [Compound 33]
> 250 nM

// same read-out, input: COC(=O)N1C[C@@H](C(=O)c2ccc(SC)cc2)[C@H](c2cc(C)c(OC(C)(C)C(=O)O)c(C)c2)C1 (single isomer, unassigned)
100 to 150 nM

Lookup CSc1ccc(C(=O)C2CN(C(=O)Oc3ccccc3)CC2Cc2ccc(OC(C)(C)C(=O)O)c(C)c2)cc1 (single isomer, unassigned)
150 to 200 nM

====

Target: PPAR Alpha (Homo sapiens, UniProt Q07869)
Sequence (Q07869 whole entry): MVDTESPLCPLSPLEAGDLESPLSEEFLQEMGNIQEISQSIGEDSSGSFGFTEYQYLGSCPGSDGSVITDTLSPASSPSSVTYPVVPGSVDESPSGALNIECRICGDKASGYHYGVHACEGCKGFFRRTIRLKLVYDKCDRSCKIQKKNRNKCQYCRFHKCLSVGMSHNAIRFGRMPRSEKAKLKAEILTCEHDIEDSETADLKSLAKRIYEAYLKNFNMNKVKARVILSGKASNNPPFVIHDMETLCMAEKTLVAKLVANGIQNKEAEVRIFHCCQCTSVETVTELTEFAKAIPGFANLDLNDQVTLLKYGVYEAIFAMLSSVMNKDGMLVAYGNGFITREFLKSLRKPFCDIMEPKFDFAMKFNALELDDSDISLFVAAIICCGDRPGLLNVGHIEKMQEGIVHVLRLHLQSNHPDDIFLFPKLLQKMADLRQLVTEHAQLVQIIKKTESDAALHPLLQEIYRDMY
Experiment: PathHunter NHR protein interaction / nuclear translocation agonist test, PPAR Alpha
Format: cell-based
Conditions: agonist mode; read-out: PPAR Alpha EC50
Below is a list of entries, each paired with its recorded EC50 value.

CSc1ccc(C(=O)C2CN(C(=O)Oc3ccccc3Cl)C[C@@H]2c2cc(C)c(OC(C)(C)C(=O)O)c(C)c2)cc1 (mixture of isomers)    150 to 200 nM
CSc1ccc(C(=O)[C@H]2CN(C(=O)OC3CCC(C)CC3)C[C@@H]2Cc2cc(C)c(OC(C)(C)C(=O)O)c(C)c2)cc1 (mixture of isomers)    < 100 nM
CSc1ccc(C(=O)[C@H]2CN(Cc3ccccc3)C[C@@H]2c2cc(C)c(OC(C)(C)C(=O)O)c(C)c2)cc1 (racemic)    > 250 nM
CSc1ccc(C(=O)C2CN(C(=O)OC(C)C)CC2CCc2cc(C)c(OC(C)(C)C(=O)O)c(C)c2)cc1 (single isomer, unassigned)    100 to 150 nM
CSc1ccc(C(=O)[C@H]2CN(C(=O)Cc3ccc(Cl)cc3)C[C@@H]2c2cc(C)c(OC(C)(C)C(=O)O)c(C)c2)cc1 (racemic)    < 100 nM

Turning to the following molecule.
// lookup EC50 for CSc1ccc(C(=O)[C@@H]2CN(C(C)=O)C[C@H]2CCc2cc(C)c(OC(C)(C)C(=O)O)c(C)c2)cc1 (racemic)
200 to 250 nM

====

Measured Emax of individual entries
Molecular target: PPAR Gamma (Homo sapiens, UniProt P37231)
Assay: PathHunter NHR protein interaction / nuclear translocation agonist test, PPAR Gamma
Type: cell-based
Conditions: relative to known PPARγ agonist Troglitazone = 100%; read-out: PPAR Gamma Maximum Activation Response %

Solved entries:
Cc1cc(CCC2CN(C(=O)Oc3ccccc3)CC2C(=O)c2ccc(F)cc2)cc(C)c1OC(C)(C)C(=O)O (single isomer, unassigned)    80 to 100%
Cc1cc(CC[C@H]2CN(C(=O)Oc3ccccc3)C[C@@H]2C(=O)c2ccc([S+](C)[O-])cc2)cc(C)c1OC(C)(C)C(=O)O (mixture of isomers)    80 to 100%
Cc1cc(CCC2CN(C(=O)Oc3ccccc3)CC2C(=O)c2ccc(Cl)s2)cc(C)c1OC(C)(C)C(=O)O (single isomer, unassigned)    80 to 100%
CSc1ccc(C(=O)C2CN(C(=O)Oc3ccccc3)CC2CCc2ccc(OC(C)(C)C(=O)O)c(F)c2)cc1 (single isomer, unassigned)    80 to 100%
CSc1ccc(C(=O)C2CN(C(=O)Oc3ccccc3)CC2CCc2ccc(OC(C)(C)C(=O)O)c(C)c2)cc1 (single isomer, unassigned)    80 to 100%

What value of Emax has been reported for the following molecule? CSc1ccc(C(=O)[C@H]2CN(C(=O)OC3CCC(C)CC3)C[C@@H]2Cc2cc(C)c(OC(C)(C)C(=O)O)c(C)c2)cc1 (mixture of isomers)
80 to 100%

Also need Cc1cc(CC[C@H]2CN(C(=O)Oc3ccccc3)C[C@@H]2C(=O)c2ccc(S(C)(=O)=O)cc2)cc(C)c1OC(C)(C)C(=O)O (racemic) , thanks.
80 to 100%

Same question for CSc1ccc(C(=O)C2CN(C(=O)Oc3ccccc3)CC2CCc2ccc(OC(C)(C)C(=O)O)cc2)cc1 (single isomer, unassigned) please.
80 to 100%

And CSc1ccc(C(=O)C2CN(C(=O)Oc3ccccc3)CC2Cc2ccc(OC(C)(C)C(=O)O)c(F)c2)cc1 (single isomer, unassigned) ?
80 to 100%

And for Cc1cc(CC2CN(C(=O)Oc3ccccc3)CC2C(=O)c2ccc(F)cc2)cc(C)c1OC(C)(C)C(=O)O (single isomer, unassigned) ?
80 to 100%

Same thing, different molecule: CSc1ccc(C(=O)C2CN(C(=O)Oc3ccccc3)CC2Cc2ccc(OC(C)(C)C(=O)O)c(C)c2)cc1 (single isomer, unassigned)
80 to 100%

Now this one: CSc1ccc(C(=O)C2CN(C(=O)Oc3ccccc3)CC2Cc2ccc(OC(C)(C)C(=O)O)cc2)cc1 (single isomer, unassigned)
80 to 100%

Please give the result for Cc1cc(CC2CN(C(=O)Oc3ccccc3)CC2C(=O)c2ccc(Cl)cc2)cc(C)c1OC(C)(C)C(=O)O (single isomer, unassigned) too.
80 to 100%
